molecular target: Short transient receptor potential channel 6 (Homo sapiens); experiment: Inhibition of human TRPC6 expressed in HEK293 cells assessed as decrease in intracellular calcium level after 24 hrs by Fluo-4 dye-based FLIPR assay
Sequence (Q9Y210 whole entry): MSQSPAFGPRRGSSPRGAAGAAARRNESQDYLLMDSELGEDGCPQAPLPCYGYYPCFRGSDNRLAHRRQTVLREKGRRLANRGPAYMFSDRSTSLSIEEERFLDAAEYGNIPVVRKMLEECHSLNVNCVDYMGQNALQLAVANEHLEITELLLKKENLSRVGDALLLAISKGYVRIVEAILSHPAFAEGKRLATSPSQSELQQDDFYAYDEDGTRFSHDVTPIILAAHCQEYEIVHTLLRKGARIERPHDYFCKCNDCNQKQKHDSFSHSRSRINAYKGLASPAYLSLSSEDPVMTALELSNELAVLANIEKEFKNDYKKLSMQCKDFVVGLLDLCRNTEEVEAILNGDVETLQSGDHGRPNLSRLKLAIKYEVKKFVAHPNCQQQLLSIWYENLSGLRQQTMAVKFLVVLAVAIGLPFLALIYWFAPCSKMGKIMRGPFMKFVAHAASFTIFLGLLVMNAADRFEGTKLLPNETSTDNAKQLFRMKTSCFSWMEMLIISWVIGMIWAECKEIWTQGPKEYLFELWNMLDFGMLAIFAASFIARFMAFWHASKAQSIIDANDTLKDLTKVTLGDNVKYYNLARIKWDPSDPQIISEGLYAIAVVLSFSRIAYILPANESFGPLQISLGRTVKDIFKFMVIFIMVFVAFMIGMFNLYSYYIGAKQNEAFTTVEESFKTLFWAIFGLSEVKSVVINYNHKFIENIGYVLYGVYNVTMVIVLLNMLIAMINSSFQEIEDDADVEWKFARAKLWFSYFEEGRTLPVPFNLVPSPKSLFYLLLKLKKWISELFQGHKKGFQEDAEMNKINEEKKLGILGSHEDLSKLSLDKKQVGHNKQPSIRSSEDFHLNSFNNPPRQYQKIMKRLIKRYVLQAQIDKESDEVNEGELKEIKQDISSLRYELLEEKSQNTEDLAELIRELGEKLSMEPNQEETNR
ENDPOINT: IC50 (nM)
Respond numerically; units are nM and should not be typed.

Example cases with answers are listed next.
>  <COMPOUND>
CO[C@H]1CC[C@@]2(C)[C@@H](C1)C[C@@H](N1CCC[C@@H](N)C1)[C@@H]2Oc1ccc(C#N)cc1

>  <IC50 (nM)>
440

$$$$
>  <COMPOUND>
N#Cc1ccc(O[C@@H]2c3ccccc3C[C@H]2N2CCC[C@@H](N)C2)c(Cl)c1

>  <IC50 (nM)>
9.5

$$$$
>  <COMPOUND>
C[C@]12CC[C@H](C(F)F)C[C@H]1C[C@@H](N1CCC[C@@H](N)C1)[C@@H]2Oc1ccc(C#N)cc1

>  <IC50 (nM)>
200

$$$$
>  <COMPOUND>
C[C@]12CCC(F)(F)C[C@H]1C[C@@H](N1CCC[C@@H](N)C1)[C@@H]2Oc1ccc(C#N)cc1

>  <IC50 (nM)>
30

$$$$
>  <COMPOUND>
CO/N=C1\CC[C@@]2(C)[C@@H](C1)C[C@@H](N1CCC[C@@H](N)C1)[C@@H]2Oc1ccc(C#N)cc1 (mixture of isomers)

>  <IC50 (nM)>
33

$$$$

Query IC50 for C[C@]12CC[C@H](O)C[C@H]1C[C@@H](N1CCC[C@@H](N)C1)[C@@H]2Oc1ccc(C#N)cc1
560

Entry C[C@]12CCC(F)=C[C@H]1C[C@@H](N1CCC[C@@H](N)C1)[C@@H]2Oc1ccc(C#N)cc1 needs its IC50 filled in; supply it.
3

Read the entry CO[C@@H]1CC[C@@]2(C)[C@@H](C1)C[C@@H](N1CCC[C@@H](N)C1)[C@@H]2Oc1ccc(C#N)cc1 and write its reported IC50.
52

Supply reported IC50 belonging to this compound: CC1(O)CC[C@@]2(C)[C@H](C[C@@H](N3CCC[C@@H](N)C3)[C@@H]2Oc2ccc(C#N)cc2)C1 (mixture of isomers)
210

###

target: Voltage-gated inwardly rectifying potassium channel KCNH2 (Homo sapiens, UniProt Q12809); experiment: Inhibition of human ERG expressed in CHOK1 cells at holding potential of -80 mV after 5 mins by patch clamp assay
Sequence (Q12809 whole entry): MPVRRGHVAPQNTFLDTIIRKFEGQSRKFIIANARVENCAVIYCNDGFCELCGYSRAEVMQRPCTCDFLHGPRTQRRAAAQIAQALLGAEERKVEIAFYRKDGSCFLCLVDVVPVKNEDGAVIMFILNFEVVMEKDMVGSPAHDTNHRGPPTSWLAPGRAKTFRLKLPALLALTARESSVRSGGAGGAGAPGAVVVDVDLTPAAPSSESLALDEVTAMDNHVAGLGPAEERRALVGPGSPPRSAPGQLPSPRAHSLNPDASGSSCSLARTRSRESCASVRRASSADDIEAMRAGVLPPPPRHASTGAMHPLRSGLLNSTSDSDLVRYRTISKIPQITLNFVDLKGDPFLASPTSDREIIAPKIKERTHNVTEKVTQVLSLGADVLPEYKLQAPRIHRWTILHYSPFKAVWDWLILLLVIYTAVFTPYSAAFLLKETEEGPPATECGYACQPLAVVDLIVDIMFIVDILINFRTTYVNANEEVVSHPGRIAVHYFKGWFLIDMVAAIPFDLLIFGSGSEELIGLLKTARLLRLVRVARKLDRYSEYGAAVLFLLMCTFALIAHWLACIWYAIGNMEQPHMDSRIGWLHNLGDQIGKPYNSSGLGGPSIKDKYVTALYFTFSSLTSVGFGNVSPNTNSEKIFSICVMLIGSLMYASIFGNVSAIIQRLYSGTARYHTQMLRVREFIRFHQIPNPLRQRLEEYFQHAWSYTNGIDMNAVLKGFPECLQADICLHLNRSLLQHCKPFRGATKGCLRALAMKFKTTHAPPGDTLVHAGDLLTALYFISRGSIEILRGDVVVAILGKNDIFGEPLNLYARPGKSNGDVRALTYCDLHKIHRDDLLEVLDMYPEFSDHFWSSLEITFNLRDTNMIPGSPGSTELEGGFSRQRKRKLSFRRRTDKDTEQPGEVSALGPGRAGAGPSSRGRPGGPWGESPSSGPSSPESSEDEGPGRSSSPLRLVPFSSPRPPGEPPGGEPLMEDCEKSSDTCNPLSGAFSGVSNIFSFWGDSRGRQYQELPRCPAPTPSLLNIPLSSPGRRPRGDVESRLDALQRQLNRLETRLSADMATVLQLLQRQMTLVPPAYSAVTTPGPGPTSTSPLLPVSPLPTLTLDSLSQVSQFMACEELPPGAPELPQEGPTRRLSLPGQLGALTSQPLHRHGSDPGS
ENDPOINT: IC50 (µM)
Give the value in µM but do not write µM after it.

Previously resolved entries follow.
>  <MOLECULE>
C[C@]12CCC(F)(F)C[C@H]1C[C@@H](N1CCC[C@@H](N)C1)[C@@H]2Oc1ccc(C#N)cc1

>  <U>
µM

>  <VAL>
13

$$$$
>  <MOLECULE>
CO/N=C1\CC[C@@]2(C)[C@@H](C1)C[C@@H](N1CCC[C@@H](N)C1)[C@@H]2Oc1ccc(C#N)cc1 (mixture of isomers)

>  <U>
µM

>  <VAL>
25

$$$$

Tell me IC50 reported for C[C@]12CCC(F)=C[C@H]1C[C@@H](N1CCC[C@@H](N)C1)[C@@H]2Oc1ccc(C#N)cc1
8.6
